test: NCI Yeast Anticancer Drug Screen. Data for the mec2-1 strain (AID 157); settings: S. cerevisiae mec2-1 strain, at 50.0 µM
About 79,000 compounds went through this panel and 15% of them were active in at least one assay; those are over-represented in the sample as a whole. Activity calls are given as the source filed them. No stated cut-off is given here; in the data, active means growth inhibition above about 70%; inactive means the rest.
Allowed answers: active, inactive

Exercise: Returns: the outcome recorded for N#C[C@H](c1nc2ccccc2[nH]1)c1nc2ccccc2nc1Cl in this assay.
Key: inactive

Exercise: Returns: the outcome recorded for COc1ccc(C(=O)Oc2ccccc2C)cc1 in this assay.
Key: inactive

Exercise: Returns: the outcome recorded for CN(C)CCN(C(=Nc1ccccc1)N1CCCC1)c1ccccc1 in this assay.
Key: inactive

Exercise: Returns: the outcome recorded for COc1cc([C@@H]2OC[C@@H]3C(c4cc(OC)c5c(c4)OCO5)OC[C@@H]32)cc(OC)c1OC (stereo partly drawn) in this assay.
Key: inactive

Exercise: Returns: the outcome recorded for Clc1ccc2c(Cl)ncnc2c1I in this assay.
Key: inactive

Exercise: Returns: the outcome recorded for O=C1C=C2CCC[C@H]3OC(=O)C[C@@]23CC1 in this assay.
Key: inactive

Exercise: Returns: the outcome recorded for Nc1nc[n+](Cc2ccccc2)c2ncn(Cc3ccccc3)c12 in this assay.
Key: inactive

Exercise: Returns: the outcome recorded for CCCCS(=O)(=O)Nc1cccc(C(=O)O)c1 in this assay.
Key: inactive

Exercise: Returns: the outcome recorded for CC1(C)OC2COC(c3[nH]nc4c(=O)[nH]c(=O)[nH]c34)C2O1 (stereo not drawn) in this assay.
Key: inactive

Exercise: Returns: the outcome recorded for O=c1/c(=C/c2ccccc2O)sc2nc3ccccc3n12 in this assay.
Key: inactive

Exercise: Returns: the outcome recorded for NC(=O)c1cccc[n+]1[O-] in this assay.
Key: inactive

Exercise: Returns: the outcome recorded for COc1cc(NS(C)(=O)=O)ccc1Nc1c2ccc(N(C)C)cc2nc2cc(N(C)C)ccc12 in this assay.
Key: inactive

Exercise: Returns: the outcome recorded for Cc1ccc2c(c1)NC(C1Nc3cc(C)ccc3O1)O2 (stereo not drawn) in this assay.
Key: inactive

Exercise: Returns: the outcome recorded for COC(=O)c1cncc(C(=O)OC)c1 in this assay.
Key: inactive

Exercise: Returns: the outcome recorded for CCOc1ccc(C(=O)C=O)cc1 in this assay.
Key: inactive

Exercise: Returns: the outcome recorded for O=C(CCC(=O)Nc1ccc(Cl)c(Cl)c1)CC(=O)c1ccc(F)cc1 in this assay.
Key: inactive

Exercise: Returns: the outcome recorded for NCc1ccc(C(=O)O)cc1 in this assay.
Key: inactive

Exercise: Returns: the outcome recorded for Cn1cc(NC(=O)c2cc(NC(=O)CCCCCC(=O)Nc3cc(C(=O)Nc4cc(C(=O)NCCC(=N)N)n(C)c4)n(C)c3)cn2C)cc1C(=O)NCCC(=N)N in this assay.
Key: inactive

Exercise: Returns: the outcome recorded for NC(=O)c1ccccc1NC(=O)C(=O)C(c1cnc2ccc([N+](=O)[O-])cc2n1)[N+](=O)[O-] (stereo not drawn) in this assay.
Key: inactive

Exercise: Returns: the outcome recorded for CCOC(=O)C1C2CCCC(=O)C21 (stereo not drawn) in this assay.
Key: inactive

Exercise: Returns: the outcome recorded for COc1cc(C2c3cc4c(cc3OC3(OC)COC(=O)C23)OCO4)cc(OC)c1OC (stereo not drawn) in this assay.
Key: inactive

Exercise: Returns: the outcome recorded for Cc1[nH]c2cc([N+](=O)[O-])ccc2c1C in this assay.
Key: inactive

Exercise: Returns: the outcome recorded for CC(=O)Nc1[nH]ncc1C#N in this assay.
Key: inactive

Exercise: Returns: the outcome recorded for O=C(O)c1ccccc1/C=N\NC1=NCCCCN1 in this assay.
Key: inactive

Exercise: Returns: the outcome recorded for NCCO in this assay.
Key: inactive

Exercise: Returns: the outcome recorded for Cc1ccc(S(=O)(=O)OC2C3OC(C)(C)OC3OC2C(c2cc(O)c3c(c2O)C(=O)c2ccccc2C3=O)c2cc(O)c3c(c2O)C(=O)c2ccccc2C3=O)cc1 (stereo not drawn) in this assay.
Key: inactive

Exercise: Returns: the outcome recorded for CCCC(=O)OC(C)COc1ccccc1 (stereo not drawn) in this assay.
Key: inactive

Exercise: Returns: the outcome recorded for Cc1cc2nc(-c3ccccn3)c(-c3ccccn3)nc2cc1C in this assay.
Key: inactive

Exercise: Returns: the outcome recorded for O=C1CSSCC(=O)Nc2ccccc2N1 in this assay.
Key: inactive

Exercise: Returns: the outcome recorded for CCOC(=O)CCC(C#N)C(=O)OCC (stereo not drawn) in this assay.
Key: inactive

Exercise: Returns: the outcome recorded for CN(C)Cc1ccccc1O in this assay.
Key: inactive

Exercise: Returns: the outcome recorded for CC(=O)OCC1OC(n2cnc([N+](=O)[O-])c2C#N)C(OC(C)=O)C1OC(C)=O (stereo not drawn) in this assay.
Key: inactive

Exercise: Returns: the outcome recorded for Cc1cccc(C)c1NC(=O)CCC/C(CC(=O)c1ccc(F)cc1)=N\NC(=O)C(=O)NN in this assay.
Key: inactive

Exercise: Returns: the outcome recorded for O=C(NC1=C(Cl)C(=O)c2ccccc2C1=O)C(=O)c1c(O)c2ccccc2oc1=O in this assay.
Key: active

Exercise: Returns: the outcome recorded for O=C(O)CC(O)(c1ccccc1C(=O)O)c1cccc2ccccc12 (stereo not drawn) in this assay.
Key: inactive

Exercise: Returns: the outcome recorded for COC1CC(OC2CCC3(C)C(=CCC4C3C(OC(C)=O)C(OC(=O)CC(C)C)C3(C)C(C(C)=O)CCC43O)C2)OC(C)C1OC1CC(OC)C(OC2CC(OC)C(OC3OC(C)C(O)C(OC)C3O)C(C)O2)C(C)O1 (stereo not drawn) in this assay.
Key: inactive

Exercise: Returns: the outcome recorded for CC(C)(C)OC(=O)CN1C(=O)CCC1=O in this assay.
Key: inactive

Exercise: Returns: the outcome recorded for Cc1ccc(OP2(Oc3ccc(C)cc3)=NP(Oc3ccc(C)cc3)(Oc3ccc(C)cc3)=NP(Oc3ccc(C)cc3)(Oc3ccc(C)cc3)=N2)cc1 in this assay.
Key: inactive
